Some compounds, each annotated with its measured T/C.
- Test system: CD2F1 mice, L1210 leukemia ip, survival T/C
- test protocol: NCI In Vivo Anticancer Drug Screen. Data for tumor model L1210 Leukemia (intraperitoneal) in CD2F1 (CDF1) mice
- test parameters: endpoint: mean survival time; dose: 12.5 mg/kg/injection; schedule: Q01DX005 (ip); vehicle: distilled water + Tween-80; higher = longer survival
Toxic doses and inconclusive results are not listed.

Look over these answered cases.
Asked: // output T/C; input Nc1ncnc2c1[nH]c(=O)n2C1OC(CO)C2OC21 (centres undefined) ; system CD2F1 mice, L1210 leukemia ip, survival T/C
Given back: 102 % of control

Asked: // output T/C; input C/C=C1\OC(n2cnc3c(N)ncnc32)C(O)C1O (centres undefined) ; system CD2F1 mice, L1210 leukemia ip, survival T/C
Given back: 101 % of control

Asked: // output T/C; input O=c1[nH]c(=O)n(C2CC(O)C(CO)O2)cc1/C=N/O (centres undefined) ; system CD2F1 mice, L1210 leukemia ip, survival T/C
Given back: 101 % of control

Please look at the following compound next.
Asked: // output T/C; input CC(=O)OC1COC(n2c(=S)n(-c3ccccc3)c(=N)c3ccccc32)C(OC(C)=O)C1OC(C)=O (centres undefined) ; system CD2F1 mice, L1210 leukemia ip, survival T/C
Given back: 90 % of control

====

- Test system: CD2F1 mice, L1210 leukemia ip, survival T/C
- test protocol: NCI In Vivo Anticancer Drug Screen. Data for tumor model L1210 Leukemia (intraperitoneal) in CD2F1 (CDF1) mice
- test parameters: endpoint: mean survival time; dose: 400.0 mg/kg/injection; schedule: Q01DX009 (ip); vehicle: saline; higher = longer survival
Toxic doses and inconclusive results are not listed.
Some compounds, each annotated with its measured T/C.

Look over these answered cases.
Asked: # return recorded T/C for input C[Si](OCc1ccc(-c2ccccc2)cc1)c1ccccc1
Given back: 94 % of control

Asked: # return recorded T/C for input CCC(=O)c1ccc(Cc2ccc(C(=O)CC)cc2)cc1
Given back: 93 % of control

Asked: # return recorded T/C for input COc1ccccc1/C=C/c1ccnc2ccccc12
Given back: 96 % of control

---
Asked: # return recorded T/C for input c1ccc2c(c1)Sc1cnccc1N2CC1CO1 (configuration not stated)
Given back: 104 % of control

Asked: # return recorded T/C for input COC(=O)c1ccncc1
Given back: 100 % of control

Asked: # return recorded T/C for input CC(CO)(CO)[N+](=O)[O-]
Given back: 104 % of control

Asked: # return recorded T/C for input OC1C2COC(O2)C(O)C1O (configuration not stated)
Given back: 98 % of control

====

Some compounds, each annotated with its measured T/C.
- Tested on: CD2F1 mice, L1210 leukemia ip, survival T/C
- test protocol: NCI In Vivo Anticancer Drug Screen. Data for tumor model L1210 Leukemia (intraperitoneal) in CD2F1 (CDF1) mice
- test parameters: endpoint: mean survival time; dose: 100.0 mg/kg/injection; schedule: Q01DX009 (ip); vehicle: saline with Tween-80; higher = longer survival
Toxic doses and inconclusive results are not listed.

Look over these answered cases.
Asked: # return recorded T/C for input O=C1CSC(=S)N1/N=C/c1ccc(Cl)c([N+](=O)[O-])c1
Given back: 92 % of control

Asked: # return recorded T/C for input N#CCSc1nc(N)nc2nc[nH]c12
Given back: 103 % of control

Asked: # return recorded T/C for input Clc1ccccc1CCCBr
Given back: 96 % of control

---
Asked: # return recorded T/C for input CNS(=O)(=O)c1ccc2c(c1)[nH]c(=S)n2C
Given back: 97 % of control

Asked: # return recorded T/C for input COC(=O)N/N=C\c1ccc(O)c(OC)c1
Given back: 104 % of control

Asked: # return recorded T/C for input Cc1ccc(C)c(NC(=O)c2cccc(Cl)c2)c1
Given back: 89 % of control

Asked: # return recorded T/C for input CCN(C(=O)Nc1cccc(Cl)c1)c1ccccc1C
Given back: 91 % of control

Values from PubChem BioAssay AID256
